target: Indoleamine 2,3-dioxygenase 1 (Homo sapiens); assay: Inhibition of IDO1 (unknown origin) assessed as reduction in kynurenine production using L-tryptophan as substrate at 50 uM incubated for 1 hr by absorbance based microplate reader analysis relative to control
Sequence (P14902 whole entry, looked up): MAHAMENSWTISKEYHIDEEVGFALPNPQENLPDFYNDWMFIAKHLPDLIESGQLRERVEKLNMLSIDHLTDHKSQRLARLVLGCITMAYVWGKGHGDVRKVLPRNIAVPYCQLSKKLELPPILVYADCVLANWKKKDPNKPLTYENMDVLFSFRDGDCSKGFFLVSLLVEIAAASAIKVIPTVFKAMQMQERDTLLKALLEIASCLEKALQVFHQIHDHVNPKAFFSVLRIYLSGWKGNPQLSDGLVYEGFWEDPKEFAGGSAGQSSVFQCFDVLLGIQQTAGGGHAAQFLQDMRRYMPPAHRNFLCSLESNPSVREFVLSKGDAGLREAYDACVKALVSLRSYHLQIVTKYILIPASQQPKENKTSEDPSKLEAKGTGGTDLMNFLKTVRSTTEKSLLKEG
measure: inhibition (%)

>>> numeric_readout("c1csc(-c2nccc3c2[nH]c2ccccc23)c1")
61
>>> numeric_readout("Clc1ccc(-c2nccc3c2[nH]c2ccccc23)cc1")
86
>>> numeric_readout("c1ccc2c(c1)[nH]c1c(-c3ccoc3)nccc12")
5
>>> numeric_readout("c1ccc2c(c1)[nH]c1c(-c3cnn[nH]3)nccc12")
91
>>> numeric_readout("Fc1cccc(-c2nccc3c2[nH]c2ccccc23)c1")
28
>>> numeric_readout("c1ccc2c(c1)[nH]c1c(-c3ncc[nH]3)nccc12")
26
>>> numeric_readout("Clc1cccc(-c2nccc3c2[nH]c2ccccc23)c1")
55
>>> numeric_readout("Fc1ccc(-c2nccc3c2[nH]c2ccccc23)cc1")
27
>>> numeric_readout("c1ccc2c(c1)[nH]c1c(-c3cc[nH]n3)nccc12")
34
>>> numeric_readout("Brc1ccc(-c2nccc3c2[nH]c2ccccc23)cc1")
51
>>> numeric_readout("c1ccc2c(c1)[nH]c1cnccc12")
48

Cited source: ChEMBL document CHEMBL5137086
